Assay: In-vivo pharmacokinetic experiments on rats
Design: species or system SD rats
Conditions: both sexes, SD, plasma, iv; Rat PK i.v 3 mg/kg; read-out: Cmax/Co
Description: SD rats were used, half male and half female, which were administered with compounds by intravenous injection (3 mg/kg), intraperitoneal injection (10 mg/kg) or gavage (30 mg/kg) at different doses. At different time points after administration, blood was collected into EDTA blood sample collection tubes. Plasma was separated by centrifugation and stored at −20° C. pending analysis. […]
EXPERIMENTAL READOUT: Cmax (ng/mL)

- CCOC(=O)N(C)[C@H]1CN(C(=O)N[C@H](C)c2cnc(C(F)(F)F)nc2)N=C1c1ccc(C)cc1 [Compound 4]: 1750
- Cc1ccc(C2=NN(C(=O)N[C@H](C)c3ccc(C(F)(F)F)nc3)C[C@@H]2N2CCOC2=O)cc1 [Compound 22]: 2210

----------
target: gpP2X3 (Cavia porcellus, UniProt H0VWY5); test: Inhibitory activity against P2X3 in guinea pigs (electrophysiological method); conditions: guinea pig P2X3, electrophysiological method
Sequence (H0VWY5 1-391): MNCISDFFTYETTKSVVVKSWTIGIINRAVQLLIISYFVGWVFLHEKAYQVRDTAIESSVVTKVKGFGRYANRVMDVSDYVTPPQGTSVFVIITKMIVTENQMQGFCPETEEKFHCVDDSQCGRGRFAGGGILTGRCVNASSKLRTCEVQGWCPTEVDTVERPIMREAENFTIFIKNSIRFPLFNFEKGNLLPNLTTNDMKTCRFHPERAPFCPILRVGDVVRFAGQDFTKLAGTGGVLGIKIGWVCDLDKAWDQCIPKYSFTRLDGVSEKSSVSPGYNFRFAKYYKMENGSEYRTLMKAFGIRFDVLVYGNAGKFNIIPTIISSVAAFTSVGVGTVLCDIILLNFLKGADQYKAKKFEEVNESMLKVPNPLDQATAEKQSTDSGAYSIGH
EXPERIMENTAL READOUT: IC50 (nM)

- Cc1ccc(C2=NN(C(=O)N[C@H](C)c3ccc(C(F)(F)F)nc3)C[C@@H]2N2CCOC2=O)nc1: 359
- Cc1ccc(C2=NN(C(=O)N[C@H](C)c3ccc(C(F)(F)F)nc3)C[C@@H]2N2CCOC2=O)cc1: 297
- Cc1ccc(C2=NN(C(=O)N[C@H](C)c3ccc(C(F)(F)F)nc3)C[C@@H]2N2CCN(C)CC2=O)cc1: 387
- Cc1ccc(C2=NN(C(=O)N[C@H](C)c3ccc(C(F)(F)F)nc3)C[C@H]2N2CCOC2=O)cc1 [Compound 22a]: 578
- CCOC(=O)N(C)[C@H]1CN(C(=O)N[C@H](C)c2cnc(C(F)(F)F)nc2)N=C1c1ccc(C)cc1: 421

----------
assay: In-vivo pharmacokinetic experiments on rats; design: species or system SD rats; settings: both sexes, SD, plasma, iv; Rat PK i.v 3 mg/kg
EXPERIMENTAL READOUT: half-life (min)

1: CCOC(=O)N(C)[C@H]1CN(C(=O)N[C@H](C)c2cnc(C(F)(F)F)nc2)N=C1c1ccc(C)cc1
2: Cc1ccc(C2=NN(C(=O)N[C@H](C)c3ccc(C(F)(F)F)nc3)C[C@@H]2N2CCOC2=O)cc1
Quick one: lower half-life, 1 or 2 ? Reply with the label of the item you choose.
1
(1: 36 min, 2: 78.6 min)

----------
target: human P2X3 (Homo sapiens, UniProt P56373); experiment: cell-based
EXPERIMENTAL READOUT: IC50 (nM)

- COc1ccc(C2=NN(C(=O)N[C@H](C)c3cnc(C(F)(F)F)nc3)C[C@@H]2N2CCOCC2=O)cc1 [Compound 36]: 283
- C[C@@H](NC(=O)N1C[C@H](N2CCCC2=O)C(c2ccc(F)cc2)=N1)c1cnc(Cl)nc1 [Compound 44]: 233

I: Cc1ccc(C2=NN(C(=O)N[C@H](C)c3cnc(C)cn3)C[C@H]2N2CCOC2=O)cc1 [Compound 27a]
II: Cc1ccc(C2=NN(C(=O)N[C@H](C)c3cnc(C)cn3)C[C@@H]2N2CCOC2=O)cc1 [Compound 27]
Which gives the smaller IC50 number: I or II ? Indicate which entry you chose by stating its label.
I
(I: 257 nM, II: 389 nM)

----------
target: human P2X3 (Homo sapiens, UniProt P56373); assay: cell-based
pIC50: −log10 of the molar value.
EXPERIMENTAL READOUT: pIC50

- C[C@@H](NC(=O)N1C[C@H](N2CCOCC2=O)C(c2ccc(Cl)cc2)=N1)c1cnc(C(F)(F)F)nc1 [Compound 35]: 6.67
- Cc1cnc([C@@H](C)NC(=O)N2C[C@@H](N3CCCC3=O)C(c3ccc(F)cc3)=N2)cn1 [Compound 28a]: 6.78
- Cc1ccc(C2=NN(C(=O)N[C@H](C)c3cnc(C(F)(F)F)nc3)C[C@H]2N2CCCC2=O)cc1 [Compound 32a]: 7.09
- CC(=O)N1CCN([C@@H]2CN(C(=O)N[C@H](C)c3ccc(C(F)(F)F)nc3)N=C2c2ccc(C)cc2)C1=O [Compound 18a]: 7.02
- Cc1ccc(C2=NN(C(=O)N[C@H](C)c3ccc(OC(F)(F)F)nc3)C[C@@H]2N2CCCC2=O)cc1 [Compound 13]: 6.59

a: Cc1ccc(C2=NN(C(=O)N[C@H](C)c3ccc(C(F)(F)F)nc3)C[C@@H]2N2CCOC2=O)nc1 [Compound 23]
b: C[C@@H](NC(=O)N1C[C@@H](N2CCCC2=O)C(c2ccc(F)cc2)=N1)c1cnc(Cl)nc1 [Compound 44a]
Consider a and b . Which of these has its pIC50 at a higher number? Record your answer as the label of the chosen record.
a
(a: 7.42, b: 6.38)

----------
experiment: In-vivo pharmacokinetic experiments on rats; set-up: species or system SD rats; details: both sexes, SD, plasma, po; Rat PK p.o 30 mg/kg; read-out: Cmax
EXPERIMENTAL READOUT: Cmax (ng/mL)

I: Cc1ccc(C2=NN(C(=O)N[C@H](C)c3ccc(C(F)(F)F)nc3)C[C@@H]2N2CCOC2=O)cc1 [Compound 22]
II: CCOC(=O)N(C)[C@H]1CN(C(=O)N[C@H](C)c2cnc(C(F)(F)F)nc2)N=C1c1ccc(C)cc1 [Compound 4]
For the pair I and II , which entry has the numerically smaller recorded Cmax? Mark your answer with the label of the selected entry.
I
(I: 1450 ng/mL, II: 4950 ng/mL)

----------
Target: human P2X3 (Homo sapiens)
Sequence (P56373 1-397): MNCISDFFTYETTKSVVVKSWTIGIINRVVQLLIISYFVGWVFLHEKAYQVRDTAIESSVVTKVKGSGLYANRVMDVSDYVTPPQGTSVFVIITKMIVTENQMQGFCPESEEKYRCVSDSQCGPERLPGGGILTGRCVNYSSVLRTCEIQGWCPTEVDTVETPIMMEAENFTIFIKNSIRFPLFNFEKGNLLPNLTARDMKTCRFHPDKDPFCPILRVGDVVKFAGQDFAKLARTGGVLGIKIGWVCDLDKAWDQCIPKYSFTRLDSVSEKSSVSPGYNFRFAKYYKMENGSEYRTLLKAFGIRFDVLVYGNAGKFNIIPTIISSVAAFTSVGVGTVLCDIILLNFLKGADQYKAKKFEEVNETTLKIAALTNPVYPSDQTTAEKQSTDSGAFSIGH
Assay: cell-based
pIC50: −log10 of the molar value.
EXPERIMENTAL READOUT: pIC50

• CC(=O)N1CCN([C@H]2CN(C(=O)N[C@H](C)c3ccc(C(F)(F)F)nc3)N=C2c2ccc(C)cc2)CC1 = 5.41
• CC(=O)N(C)[C@H]1CN(C(=O)N[C@H](C)c2ccc(Cl)nc2)N=C1c1ccc(C)cc1 = 6.45

P: Cc1ccc(C2=NN(C(=O)N[C@H](C)c3ccc(C(F)(F)F)nc3)C[C@H]2N2CCOC2=O)nc1 [Compound 23a]
Q: Cc1ccc(C2=NN(C(=O)N[C@H](C)c3cnc(C(F)(F)F)nc3)C[C@@H]2n2cccn2)cc1
R: Cc1ccc(C2=NN(C(=O)N[C@H](C)c3ccc(C(F)(F)F)cn3)C[C@H]2N2CCCC2=O)cc1 [Compound 10a]
S: CC(=O)N(C)[C@H]1CN(C(=O)N[C@H](C)c2ccc(C(F)(F)F)cc2)N=C1c1ccc(C)cc1
Reorder: pIC50, max to min. Response field: labels, in requested order.
P, R, S, Q

P: Cc1ccc(C2=NN(C(=O)N[C@H](C)c3ccc(C(F)(F)F)nc3)C[C@H]2N2CCOC2=O)cc1 [Compound 22a]
Q: Cc1ccc(C2=NN(C(=O)N[C@H](C)c3ccc(C(F)(F)F)cn3)C[C@@H]2N2CCCC2=O)cc1
R: COc1ccc([C@@H](C)NC(=O)N2C[C@H](N3CCOCC3)C(c3ccc(F)cc3)=N2)cn1
S: Cc1ccc(C2=NN(C(=O)N[C@H](C)c3ccc(C(F)(F)F)nc3)C[C@@H]2N(C)C(=O)CN(C)C)cc1
List by increasing pIC50. Note for the reader: the ranking is given by listing the labels in the order requested.
S, R, Q, P

P: Cc1ccc(C2=NN(C(=O)N[C@H](C)c3ccc(OC(F)(F)F)nc3)C[C@H]2N2CCCC2=O)cc1 [Compound 13a]
Q: CC(=O)N1CCN([C@H]2CN(C(=O)N[C@H](C)c3ccc(C#N)cc3)N=C2c2ccc(C)cc2)C1=O
R: Cc1ccc(C2=NN(C(=O)N[C@H](C)c3cnc(C(F)(F)F)nc3)C[C@@H]2N2CCCC2=O)cc1
S: Cc1ccc(C2=NN(C(=O)N[C@H](C)c3ccc(Cl)cc3)C[C@@H]2N2CCN(C)CC2=O)cc1
Your job: order these 4 records by pIC50, ascending. Answer by writing out the labels in the requested order.
S, Q, P, R
(S: 5.12, Q: 6.10, P: 6.48, R: 6.90)
